Consider the following compounds; for each one, report its TGI.
Tested on: SK-OV-3 ovarian
Assay: NCI tumour cell line growth inhibition, 48 h
One number for each entry, in µM.

1. COc1cc2c(c(OC)c1OC)-c1ncc3c(OC)c(OC)c(OC)cc3c1C2	74.9
2. Cc1cc2/c(=C\c3ccc(N(C)C)cc3)c3ccccc3n2[n+]1C	14.3
3. Cc1ccc(/C=N/n2c(-c3ccc(C)cc3)n[nH]c2=O)cc1	66.9

I'd like to know its TGI. The compound in question is `COc1cccc(/C(C#N)=C/c2nc3c(N4CCOCC4)nc(Cl)nc3n2C)c1`
18.3

----------
For each record, write down the corresponding TGI.
Tested on: UACC-257 melanoma
Assay: NCI tumour cell line growth inhibition, 48 h

Below are worked cases with known answers.
1. O=C(O)c1ccc(CI)cc1	38.9 µM
2. O=C(/C=C/c1ccccc1)CSc1ncn[nH]1	> 100 µM
3. CCC(=O)c1c(NOC2OCC(OC(C)=O)C(OC(C)=O)C2OC(C)=O)nc(OC)n(C)c1=O (stereo unspecified)	> 100 µM
4. COc1ccc(OC)c(NC(=O)CCC/C(CC(=O)c2ccc(O)c(OC)c2)=N\Nc2nnc(C)n2N)c1	> 100 µM
5. CCc1ccc(NC(=O)NC(=O)c2ccccc2[N+](=O)[O-])cc1Oc1ncc(Cl)cn1	> 100 µM
6. CC(=O)OC12C3C4C1C1C2C3C41OC(C)=O (stereo unspecified)	> 100 µM
7. CC(NC(=O)NC(C)(C)C)NC(=O)C(N)CC(=O)O (stereo unspecified)	> 100 µM
8. Nc1nonc1-c1nc2cnccc2n1C1CC1	> 25 µM

For the 3 compounds below, give their TGI values.
1. CCCCCCCCCCCCCCCCCC1=NC(C)(C)CN1CC(C)O (stereo unspecified)
2. CC(C)(C)OC(=O)N(CCCCNC(=O)OCc1ccccc1)CCCNC(=O)OCc1ccccc1
3. COc1cccc(/C(C#N)=C/c2nc3c(N4CCOCC4)nc(Cl)nc3n2C)c1

["40.6 µM", "> 100 µM", "2.9 µM"]
